Overview of reported Activity across a group of compounds:
- target-system: UniProt:P21554
- Sequence (P21554 whole entry): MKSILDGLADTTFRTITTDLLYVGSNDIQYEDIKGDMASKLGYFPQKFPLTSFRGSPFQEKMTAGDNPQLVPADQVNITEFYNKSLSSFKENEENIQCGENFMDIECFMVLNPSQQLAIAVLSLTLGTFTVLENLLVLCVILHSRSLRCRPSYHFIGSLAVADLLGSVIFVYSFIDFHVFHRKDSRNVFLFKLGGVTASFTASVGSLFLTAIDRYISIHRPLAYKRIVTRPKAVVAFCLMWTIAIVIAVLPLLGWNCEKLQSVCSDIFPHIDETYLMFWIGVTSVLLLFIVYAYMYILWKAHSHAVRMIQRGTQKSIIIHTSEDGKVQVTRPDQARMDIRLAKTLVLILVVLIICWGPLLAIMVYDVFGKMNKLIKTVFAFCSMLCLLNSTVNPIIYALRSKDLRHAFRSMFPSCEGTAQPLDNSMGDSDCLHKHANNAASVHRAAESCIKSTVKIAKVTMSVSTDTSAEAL
- experimental-details: Antagonist activity at human CBR1 assessed as [35S]GTPgammaS binding at 10 uM by radiometric assay relative to control
- Set-up: scale not given: the % may be the effect or the level left
Unit % implied. Number only.

{"columns": ["smiles", "Activity (%)"],
 "data": [
  ["O=C(NC(=S)Nc1ccc(S(=O)(=O)NCc2ccc(F)cc2)cc1)c1ccc(-c2ccccc2)cc1", 91],
  ["CN1CCN(S(=O)(=O)c2ccc(NC(=S)NC(=O)c3ccc(-c4ccccc4)cc3)cc2)CC1", 91]
]}

Turning now to a further compound:
Lab entry: UniProt:P21554 assay, compound `C=CCN(CC=C)S(=O)(=O)c1ccc(NC(=S)NC(=O)c2ccc([N+](=O)[O-])cc2)cc1` , Activity = 91
